system: HT29 colon; experiment: NCI tumour cell line growth inhibition, 48 h
observable: TGI

[ask] Print HT29 colon TGI for CCc1n[nH]c(=O)n1N1C(=O)C2CC=CCC2C1=O (centres undefined) .
[reply] > 100 µM

[ask] Fetch value of TGI on HT29 colon for `Cc1ccc(C)c(NC(=O)c2cc(-c3ccc([N+](=O)[O-])cc3)nc(N)n2)c1` .
[reply] > 100 µM

[ask] Look up HT29 colon data: TGI of CC1(c2ccc(Cl)cc2)CC(c2ccc(Cl)cc2)=C(C#N)C(=C(C#N)C#N)N1 (centres undefined) , then report it.
[reply] > 100 µM

[ask] For HT29 colon, give the measured TGI of the entry O=C1C2C=CC1C1C(=O)OC(=O)C21 (centres undefined)
[reply] > 100 µM

====

system: PC-3 prostate; test: NCI tumour cell line growth inhibition, 48 h
observable: TGI

[ask] Give the reported TGI for this compound. `CCOC(=O)CC1(O)C=CC(=O)C=C1`
[reply] 0.921 µg/mL

[ask] Give recorded TGI. `O=C1c2ccccc2C(=O)N1c1ccc(S(=O)(=O)Nc2ncccn2)cc1`
[reply] > 100 µM

[ask] Please indicate TGI recorded for `O=S1(=O)CCN(Cc2ccccn2)CC1`
[reply] > 100 µM

====

test system: SF-295 CNS; assay: NCI tumour cell line growth inhibition, 48 h
Give TGI for every item shown.

[ask] Write TGI of `O=c1cc(Cl)nc[nH]1` ; system used: SF-295 CNS
[reply] > 100 µM

[ask] Specify the recorded TGI for `Nc1cc(-c2ccccc2)ccc1O` , system: SF-295 CNS.
[reply] > 100 µM

[ask] // output TGI; input CCCCCCCCCCCCCCCC(=O)OCC(O)C1OC(=O)C(O)=C1O (stereo unspecified) ; system SF-295 CNS
[reply] 40.4 µM

[ask] Please report TGI with SF-295 CNS for item `CC(C)(C)[Si](C)(C)OCCCC#CCO` .
[reply] > 100 µM

[ask] State measured TGI of the compound CC1(c2ccc(Cl)cc2)CC(c2ccc(Cl)cc2)=C(C#N)C(=C(C#N)C#N)N1 (stereo unspecified) with SF-295 CNS.
[reply] 32.6 µM

[ask] With SF-295 CNS as the test system, provide measured TGI for this compound: `CN(C)CCn1c2ccccc2c2nc3cc4ccccc4cc3nc21`
[reply] 17 µM

[ask] Lab note: SF-295 CNS assay, enter TGI for `C=C1c2c(cc3c(c2O)c(=O)c2ccccc2n3C)OC1(C)C` here
[reply] > 100 µM

[ask] Check SF-295 CNS data and give TGI for COc1cc(OC)c2c(c1OC)OCC(Cc1ccc(O)cc1)C2=O (stereo unspecified) .
[reply] > 25 µM

[ask] Report TGI under test system SF-295 CNS for `COc1cnc2c(c1)C(=O)c1c-2n(CCCn2ccnc2)c(=O)c2cc(Cl)ccc12` .
[reply] 0.0794 µM

[ask] Give reported TGI for `O=P(O)(O)C(CSc1ccccc1)P(=O)(O)O` (SF-295 CNS)
[reply] > 100 µM

[ask] Report value: TGI, system: SF-295 CNS, compound: `O=C1OCC(C#Cc2ccccc2)=C1Cl`
[reply] > 100 µM

====

system: PC-3 prostate; test: NCI tumour cell line growth inhibition, 48 h; in the data active means GI50 below about 0.43 µM; inactive means the rest
Outcome (select one): YES (active), NO (inactive)

[ask] Per the assay record, what outcome was assigned to `COc1ccc(O)c(C(=O)c2ccc(C(=O)O[C@@H]3CCCNC[C@H]3NC(=O)c3ccncc3)cc2)c1F` ?
[reply] NO

[ask] How was `O=C(Nc1ccc(Br)cc1)Nc1n[nH]c2ccccc12` classified in this test?
[reply] NO

[ask] Identify the outcome logged in this assay for the compound shown: `CC(C)(C)c1ccc([I+]c2ccc(C(C)(C)C)cc2)cc1`
[reply] NO

[ask] Could you please tell me the result logged for `CC1(C)N=C(N)N=C(N)N1c1ccc(F)c(C(F)(F)F)c1` in this assay?
[reply] YES

[ask] Look up the recorded call for `CCc1c2c(nc3cc4c(cc13)OCO4)-c1cc3c(c(=O)n1C2)COC(=O)[C@@]3(CC)OC(=O)CN` in this test.
[reply] YES

[ask] Could you check what this test reported for `CC(=O)O[C@H]1CC[C@]2(C)[C@H]3CC[C@@H]4[C@H]5[C@H](C(C)C)CC[C@]5(C(=O)OCC(CO)(CO)N=C(N)N)CC[C@@]4(C)[C@]3(C)CC[C@H]2C1(C)C` ?
[reply] NO

[ask] Record request — test call for CCC(Sc1nnc2c3ccccc3n(CC)c2n1)C(=O)Nc1ccccc1OC (configuration not stated)
[reply] NO
